Please go through the items and note down their Ki.
# target-or-test-system: dopamine D-2 receptor (Rattus norvegicus, UniProt P61169)
# Construct: Homogenized rat caudate was the source of the D-2 receptors; from tissue; host or cells: rat caudate homogenate
# Sequence (P61169 whole entry): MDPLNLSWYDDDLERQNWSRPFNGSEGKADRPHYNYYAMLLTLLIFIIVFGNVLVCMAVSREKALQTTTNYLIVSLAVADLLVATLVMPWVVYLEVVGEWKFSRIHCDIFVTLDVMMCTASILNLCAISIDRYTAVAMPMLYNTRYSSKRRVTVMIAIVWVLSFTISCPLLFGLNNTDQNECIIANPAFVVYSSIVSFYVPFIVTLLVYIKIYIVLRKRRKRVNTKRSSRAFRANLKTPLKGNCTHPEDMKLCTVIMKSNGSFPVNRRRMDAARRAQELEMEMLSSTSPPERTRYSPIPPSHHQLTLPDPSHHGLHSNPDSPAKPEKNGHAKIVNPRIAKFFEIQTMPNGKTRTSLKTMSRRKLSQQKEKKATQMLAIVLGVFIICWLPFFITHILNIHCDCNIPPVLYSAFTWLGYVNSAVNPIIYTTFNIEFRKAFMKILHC
# assay-remarks: D-2 receptor competitive binding, [3H]-spiroperidol, homogenized rat caudate
# condition-parameters: rat caudate, [3H]-spiroperidol; read-out: D-2 Ki
Where a name gives a salt, the structure may show the parent alone.
Value expressed in nM; do not type the unit.

Measured Ki (dopamine D-2 receptor (Rattus norvegicus, UniProt P61169)), entry Oc1cc2c(cc1O)[C@H]1c3cc(CC4CCCC4)sc3CN[C@@H]1CC2 (relative stereo) [Example 39, hydrobromide] : 1620

Item CC(C)(C)Cc1cc2c(s1)CN[C@H]1CCc3cc(O)c(O)cc3[C@H]21 (relative stereo) [Example 10] ; assay system dopamine D-2 receptor (Rattus norvegicus, UniProt P61169); Ki reported as 4600

Reading of Ki for Oc1cc2c(cc1O)[C@H]1c3cc(-c4ccccc4)oc3CN[C@@H]1CC2 (relative stereo) [Example 42, hydrochloride] with dopamine D-2 receptor (Rattus norvegicus, UniProt P61169): 640

dopamine D-2 receptor (Rattus norvegicus, UniProt P61169) assay, molecule CCCc1nc2c(s1)[C@H]1c3cc(O)c(O)cc3CC[C@@H]1NC2 (relative stereo) [Example 27, dihydrobromide] , recorded Ki = 210

# Ki measured on dopamine D-2 receptor (Rattus norvegicus, UniProt P61169) for item Oc1cc2c(cc1O)[C@H]1c3cc(-c4cccs4)sc3CN[C@@H]1CC2 (relative stereo) [Example 37, hydrobromide] = 3190

Entry CC(C)c1cc2c(s1)[C@@H]1c3cc(O)c(O)cc3CC[C@H]1NC2 (relative stereo) [Example 34, trifluoroacetate salt] : Ki on dopamine D-2 receptor (Rattus norvegicus, UniProt P61169) = 420

The observed Ki for CCCc1cc2c(o1)CN[C@@H]1CCc3cc(O)c(O)cc3[C@@H]21 (relative stereo) [Example 41] when tested with dopamine D-2 receptor (Rattus norvegicus, UniProt P61169) stands at 600

Cc1nc2c(o1)[C@@H]1c3cc(O)c(O)cc3CC[C@H]1NC2 (relative stereo) [Example 51] tested on dopamine D-2 receptor (Rattus norvegicus, UniProt P61169) gave Ki: 382

// molecule CC(C)CCc1cc2c(s1)[C@@H]1c3cc(O)c(O)cc3CC[C@H]1NC2 (relative stereo) [Example 30, hydrobromide] , assay dopamine D-2 receptor (Rattus norvegicus, UniProt P61169), Ki value: 560

The observed Ki for Oc1cc2c(cc1O)[C@@H]1c3sc(-c4ccccc4)cc3CN[C@H]1CC2 (relative stereo) [Example 19, hydrobromide] when tested with dopamine D-2 receptor (Rattus norvegicus, UniProt P61169) stands at 750

The reported Ki value, dopamine D-2 receptor (Rattus norvegicus, UniProt P61169), for CC(C)c1nc2c(o1)[C@@H]1c3cc(O)c(O)cc3CC[C@H]1NC2 (relative stereo) [Example 50, dihydrobromide] reads 365

Observed Ki, dopamine D-2 receptor (Rattus norvegicus, UniProt P61169), CCCc1nc2c(o1)CN[C@@H]1CCc3cc(O)c(O)cc3[C@@H]21 (relative stereo) [Example 53, dihydrobromide] : 230

* * *

# target-or-test-system: dopamine D-1 receptor (Rattus norvegicus)
# Sequence (P18901 whole entry): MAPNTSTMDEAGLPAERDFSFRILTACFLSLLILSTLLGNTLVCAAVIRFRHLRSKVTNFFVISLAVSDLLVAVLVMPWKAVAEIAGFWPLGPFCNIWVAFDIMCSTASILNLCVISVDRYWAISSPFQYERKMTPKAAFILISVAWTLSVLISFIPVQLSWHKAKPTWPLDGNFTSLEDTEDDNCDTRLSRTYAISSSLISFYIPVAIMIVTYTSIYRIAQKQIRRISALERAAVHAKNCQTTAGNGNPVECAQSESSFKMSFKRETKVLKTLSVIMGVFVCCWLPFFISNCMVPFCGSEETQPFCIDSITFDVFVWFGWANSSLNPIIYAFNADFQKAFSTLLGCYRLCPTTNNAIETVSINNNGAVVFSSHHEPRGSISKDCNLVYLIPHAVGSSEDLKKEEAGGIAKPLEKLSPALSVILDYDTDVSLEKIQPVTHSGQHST
# condition-parameters: read-out: D-1 Ki; rat caudate, [125I]SCH-23982
Where a name gives a salt, the structure may show the parent alone.
measure-name: Ki

The recorded Ki for Oc1cc2c(cc1O)C1c3cc(C45CC6CC(CC(C6)C4)C5)sc3CNC1CC2 (stereo not shown) [Example 47, hydrobromide] is > 10 µM
